molecular target: T1, recombinant human IL-6 (human, UniProt P05231 30-212); assay: SPR (Biacore), purified IgG on Protein A, 37 C
T1 construct: Flowed in solution over the captured antibodies
T1 sequence (P05231 30-212 limits assumed): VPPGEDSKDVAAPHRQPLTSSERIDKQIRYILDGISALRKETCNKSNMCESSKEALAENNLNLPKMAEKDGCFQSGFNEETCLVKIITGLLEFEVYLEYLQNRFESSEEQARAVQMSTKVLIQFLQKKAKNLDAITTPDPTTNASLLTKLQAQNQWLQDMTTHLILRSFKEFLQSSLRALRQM
Reported metric: pKd
Formally, pKd is defined as -log10 of the concentration c, with c in mol/L.

Any idea what pKd was measured for anti-IL-6 antibody, heavy chain WT, light chain I27F (antibody, IgG1, V domains shown, Full IgG1 tested; V domains derived as in m2) VH: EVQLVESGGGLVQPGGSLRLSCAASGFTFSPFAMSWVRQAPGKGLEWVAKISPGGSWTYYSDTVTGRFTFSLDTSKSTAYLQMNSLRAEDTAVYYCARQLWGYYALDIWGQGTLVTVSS VL: DIQLTQSPSSLSASVGDRVTITCSASFSVSYMYWYQQKPGKAPKLLIYDMSNLASGVPSRFSGSGSGTDFTLTISSLQPEDFATYYCMQWSGYPYTFGQGTKVEIK ? 9.16

Could you tell me which pKd is on file for anti-IL-6 antibody, heavy chain I108F, light chain WT (antibody, IgG1, V domains shown, Full IgG1 tested; V domains derived as in m2) VH: EVQLVESGGGLVQPGGSLRLSCAASGFTFSPFAMSWVRQAPGKGLEWVAKISPGGSWTYYSDTVTGRFTFSLDTSKSTAYLQMNSLRAEDTAVYYCARQLWGYYALDFWGQGTLVTVSS VL: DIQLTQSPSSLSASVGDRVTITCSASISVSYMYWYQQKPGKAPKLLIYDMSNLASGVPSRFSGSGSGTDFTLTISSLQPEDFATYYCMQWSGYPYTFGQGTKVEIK ? 9.23

Report pKd for anti-IL-6 antibody, heavy chain G26R, light chain WT (antibody, IgG1, V domains shown, Full IgG1 tested; V domains derived as in m2) VH: EVQLVESGGGLVQPGGSLRLSCAASRFTFSPFAMSWVRQAPGKGLEWVAKISPGGSWTYYSDTVTGRFTFSLDTSKSTAYLQMNSLRAEDTAVYYCARQLWGYYALDIWGQGTLVTVSS VL: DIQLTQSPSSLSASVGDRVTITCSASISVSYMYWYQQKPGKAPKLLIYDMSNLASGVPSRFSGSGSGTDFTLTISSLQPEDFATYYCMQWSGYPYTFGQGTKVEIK please. 9.33

For the binder shown here, anti-IL-6 antibody, heavy chain WT, light chain A25S (antibody, IgG1, V domains shown, Full IgG1 tested; V domains derived as in m2) VH: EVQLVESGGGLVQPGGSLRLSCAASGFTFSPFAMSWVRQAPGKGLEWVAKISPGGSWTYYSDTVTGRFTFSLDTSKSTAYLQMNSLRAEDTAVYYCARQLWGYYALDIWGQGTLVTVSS VL: DIQLTQSPSSLSASVGDRVTITCSSSISVSYMYWYQQKPGKAPKLLIYDMSNLASGVPSRFSGSGSGTDFTLTISSLQPEDFATYYCMQWSGYPYTFGQGTKVEIK , give the reported pKd. 9.36

I am curious: what pKd value has been reported for anti-IL-6 antibody, heavy chain WT, light chain I27W (antibody, IgG1, V domains shown, Full IgG1 tested; V domains derived as in m2) VH: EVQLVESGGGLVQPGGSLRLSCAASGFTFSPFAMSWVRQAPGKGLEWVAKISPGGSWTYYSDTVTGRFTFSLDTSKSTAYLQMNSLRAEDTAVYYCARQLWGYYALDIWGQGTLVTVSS VL: DIQLTQSPSSLSASVGDRVTITCSASWSVSYMYWYQQKPGKAPKLLIYDMSNLASGVPSRFSGSGSGTDFTLTISSLQPEDFATYYCMQWSGYPYTFGQGTKVEIK ? 9.14
